Cited source for all entries: ChEMBL document CHEMBL1152124

- Test System: Histamine H3 receptor (Homo sapiens, UniProt Q9Y5N1)
- Sequence (Q9Y5N1 whole entry): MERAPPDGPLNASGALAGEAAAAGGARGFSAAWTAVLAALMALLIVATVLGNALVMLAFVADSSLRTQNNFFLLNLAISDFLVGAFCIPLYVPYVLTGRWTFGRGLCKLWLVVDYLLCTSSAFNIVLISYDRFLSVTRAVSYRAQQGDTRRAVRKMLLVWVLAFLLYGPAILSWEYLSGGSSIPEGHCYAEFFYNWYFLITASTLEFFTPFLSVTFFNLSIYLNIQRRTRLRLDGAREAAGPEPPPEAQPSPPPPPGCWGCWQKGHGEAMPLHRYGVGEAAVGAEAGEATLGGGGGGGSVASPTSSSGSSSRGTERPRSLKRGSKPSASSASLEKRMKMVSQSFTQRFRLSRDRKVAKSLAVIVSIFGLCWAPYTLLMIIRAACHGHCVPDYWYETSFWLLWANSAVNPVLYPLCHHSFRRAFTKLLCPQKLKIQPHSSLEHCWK
- Test Details: Displacement of [3H](R)-alpha-methylhistamine from human histamine H3 receptor expressed in rat C6 cells
- Assay type: cell-based
Property Name: Ki

>>> df
            smiles_structure  property_name  recorded_result
0  c1ccc(CCCOCCCN2CCCCC2)cc1             Ki           3.1 nM

* * *

- Test System: Histamine H3 receptor (Homo sapiens)
- Test Details: Displacement of [125I]iodoproxyfan from human recombinant histamine H3 receptor expressed in CHO-K1 cells
- Assay type: cell-based
- Experimental Conditions: read-out: Ki
Exam item: assign T to entries whose Ki is below 0.3 µM and F to entries at or above 0.3 µM. Note that a value of exactly 0.3 µM receives F.

>>> df
                                    compound  label_value
 0         Clc1cccc(OCCN2CCC(N3CCCCC3)CC2)c1            T
 1  c1ccc(CCCOCCCN2CCC3CCCCC3C2)cc1 (stereo not drawn)            F
 2        COc1cccc(OCCCN2CCC(N3CCCCC3)CC2)c1            F
 3             CCCCC1CCN(CCCOCCCc2ccccc2)CC1            T
 4         COc1cccc(OCCN2CCC(N3CCCCC3)CC2)c1            T
 5         Clc1ccc(OCCN2CCC(N3CCCCC3)CC2)cc1            T
 6   FC(F)(F)c1cccc(OCCN2CCC(N3CCCCC3)CC2)c1            T
 7  CC(C)(C)c1ccc(OCCCN2CCC(N3CCCCC3)CC2)cc1            T
 8           c1ccc(CCCOCCCN2CCc3ccccc3C2)cc1            F
 9        Clc1ccc(OCCCN2CCC(N3CCCCC3)CC2)cc1            T
10      c1ccc(CCCOCCCN2CCC(Cc3ccccc3)CC2)cc1            F
11              CCCC1CCN(CCCOCCCc2ccccc2)CC1            T

* * *

- Test system: Mus musculus
- Test Details: Antagonist activity at histamine H3 receptor in po dosed Swiss mouse cerebral cortex assessed as Ntau-methylhistamine level after 90 mins by radioimmunoassay
- Assay type: functional
- Experimental Conditions: 1.5 h
Each entry below carries its recorded ED50.
Property Name: ED50

                                    compound   test_system  recorded_result
 0           c1ccc(CCCOCCCN2CCc3ccccc3C2)cc1  Mus musculus       > 10 mg/kg
 1        Clc1ccc(OCCCN2CCC(N3CCCCC3)CC2)cc1  Mus musculus       > 20 mg/kg
 2  CC(C)(C)c1ccc(OCCCN2CCC(N3CCCCC3)CC2)cc1  Mus musculus       > 20 mg/kg
 3             CCCCC1CCN(CCCOCCCc2ccccc2)CC1  Mus musculus       > 10 mg/kg
 4        COc1cccc(OCCCN2CCC(N3CCCCC3)CC2)c1  Mus musculus       > 20 mg/kg
 5              CCCC1CCN(CCCOCCCc2ccccc2)CC1  Mus musculus       > 10 mg/kg
 6               Clc1ccc(CCCOCCCN2CCCCC2)cc1  Mus musculus        1.6 mg/kg
 7                 c1ccc(CCCOCCCN2CCCCC2)cc1  Mus musculus        3.7 mg/kg
 8                 c1ccc(COCCCc2c[nH]cn2)cc1  Mus musculus       > 10 mg/kg
 9  c1ccc(CCCOCCCN2CCC3CCCCC3C2)cc1 (stereo unspecified)  Mus musculus       > 10 mg/kg
10      c1ccc(CCCOCCCN2CCC(Cc3ccccc3)CC2)cc1  Mus musculus       > 10 mg/kg
